Sourced from patent US12440492B2

# protocol description: Particle size distribution (d10, d50, d90) by laser diffraction
# Format: physicochemical
# condition: spray dried amorphous ipatasertib monohydrochloride powder
Structures can show the parent of a compound that is named as a salt.
Exercise: for every item that follows, state its recorded Particle size d50.
Provide the measurement as a number trailed by its unit.

Worked examples, 2 compounds total:
1. CC(C)NC[C@@H](C(=O)N1CCN(c2ncnc3c2[C@H](C)C[C@H]3O)CC1)c1ccc(Cl)cc1 [Composition 141210423, ipatasertib monohydrochloride]
28 μm
2. CC(C)NC[C@@H](C(=O)N1CCN(c2ncnc3c2[C@H](C)C[C@H]3O)CC1)c1ccc(Cl)cc1 [Composition 140110402, ipatasertib monohydrochloride]
20 μm

Turning to the following compound.
Prompt line: Dear colleague, please send me the reported Particle size d50 for CC(C)NC[C@@H](C(=O)N1CCN(c2ncnc3c2[C@H](C)C[C@H]3O)CC1)c1ccc(Cl)cc1 [Example 6C, ipatasertib monohydrochloride] when you can.
Response line: 4.3 μm
